Target: T1, cynoSIRPα (XP_015313155), Extracellular Domain + His-Tag (cynomolgus monkey)
T1 construct: also called CySIRPα XP_015313155; not shown: His-Tag
T1 chain: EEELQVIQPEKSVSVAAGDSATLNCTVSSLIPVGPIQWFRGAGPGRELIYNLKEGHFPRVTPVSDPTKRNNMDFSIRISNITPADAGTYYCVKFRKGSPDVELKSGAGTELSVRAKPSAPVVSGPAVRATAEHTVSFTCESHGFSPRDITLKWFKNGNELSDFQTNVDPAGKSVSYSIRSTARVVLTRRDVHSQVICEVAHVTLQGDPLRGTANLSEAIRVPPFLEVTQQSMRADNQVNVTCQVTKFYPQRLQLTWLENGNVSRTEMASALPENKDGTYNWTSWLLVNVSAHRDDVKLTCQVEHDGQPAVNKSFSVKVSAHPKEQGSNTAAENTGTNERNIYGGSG
Assay: SPR, antibody captured on Protein A/G, ECD-His analyte, 1:1 fit
Description: The binding kinetics of anti-SIRPα antibodies to various SIRPα analytes are determined by surface plasmon resonance (SPR) using a Biacore 8K+(Cytiva). 1×HBS-EP+(Cytiva) is used as running buffer and for all the dilutions unless stated otherwise. […]
Returns t if the recorded kon is greater than or equal to 200000 M⁻¹ s⁻¹, and f otherwise.

A selection of reference data follows.
binder	classAssignment
Antibody E2 (antibody, human IgG1, kappa, L234A L235A, V domains shown) VH: QVQLQESGPGLVRPSETLSLTCTVSGGSIRNYYWSWIRQPPGKGLEWIGFIYYNGRTFYNPSLKSRVTISLDMSINQFSLKMTSVTAADTAVYYCARVRAYSGIGLDGTDVWGQGTTVTVSS VL: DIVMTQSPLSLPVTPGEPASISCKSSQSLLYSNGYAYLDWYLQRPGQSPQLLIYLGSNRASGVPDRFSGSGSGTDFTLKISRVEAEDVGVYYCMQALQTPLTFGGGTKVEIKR	t
Antibody E18 (antibody, human IgG1, kappa, L234A L235A, V domains shown) VH: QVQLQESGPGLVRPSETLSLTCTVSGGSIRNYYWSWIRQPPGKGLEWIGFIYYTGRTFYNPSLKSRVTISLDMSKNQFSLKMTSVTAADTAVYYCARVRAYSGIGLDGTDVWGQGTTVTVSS VL: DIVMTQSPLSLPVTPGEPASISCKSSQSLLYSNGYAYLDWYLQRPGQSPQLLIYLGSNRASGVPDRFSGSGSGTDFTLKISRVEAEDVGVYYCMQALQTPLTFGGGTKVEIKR	t

Exam item: Is the recorded value of kon equal to or greater than 200000 M⁻¹ s⁻¹ for this binder? Antibody E21 (antibody, human IgG1, kappa, L234A L235A, V domains shown) VH: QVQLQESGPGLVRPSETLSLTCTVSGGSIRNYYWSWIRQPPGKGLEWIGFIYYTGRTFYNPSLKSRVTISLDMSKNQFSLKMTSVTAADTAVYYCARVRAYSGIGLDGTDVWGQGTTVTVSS VL: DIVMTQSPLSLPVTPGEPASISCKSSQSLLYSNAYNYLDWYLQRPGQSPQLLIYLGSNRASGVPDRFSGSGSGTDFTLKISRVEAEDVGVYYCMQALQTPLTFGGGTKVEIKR
Marked response: t

Exam item: Please indicate if the recorded kon for Antibody E13 (antibody, human IgG1, kappa, L234A L235A, V domains shown) VH: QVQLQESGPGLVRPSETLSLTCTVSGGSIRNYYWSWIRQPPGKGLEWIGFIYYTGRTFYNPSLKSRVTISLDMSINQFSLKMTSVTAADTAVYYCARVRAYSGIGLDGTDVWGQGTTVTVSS VL: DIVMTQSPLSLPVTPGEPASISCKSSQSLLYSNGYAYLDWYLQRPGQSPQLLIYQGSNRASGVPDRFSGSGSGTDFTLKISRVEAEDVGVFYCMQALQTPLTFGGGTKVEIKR meets or exceeds 200000 M⁻¹ s⁻¹.
Marked response: f

Exam item: Does the reported kon for Antibody E17 (antibody, human IgG1, kappa, L234A L235A, V domains shown) VH: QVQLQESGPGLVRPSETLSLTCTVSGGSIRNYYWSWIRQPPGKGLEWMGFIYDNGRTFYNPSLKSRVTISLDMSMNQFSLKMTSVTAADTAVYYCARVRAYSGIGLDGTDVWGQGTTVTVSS VL: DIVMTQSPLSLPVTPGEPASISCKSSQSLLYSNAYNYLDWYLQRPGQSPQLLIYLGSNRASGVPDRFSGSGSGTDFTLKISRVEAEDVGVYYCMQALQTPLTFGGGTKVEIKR fall at or above the 200000 M⁻¹ s⁻¹ mark?
Marked response: t
